Measured MCHC by item
- Test method notes: Hematology assays in cynomolgus monkeys (Example 46)
- Assay type: in vivo
- Study conditions: Day 55
Strand notation (5' to 3'): a small letter for the sugar, then the base; units joined by * are phosphorothioate-linked, units joined directly phosphodiester-linked; [ ] holds rarer units or linkages, { } end groups; capitals alone tell only the bases. e = 2'-O-(2-methoxyethyl) (MOE); [5mC] = 5-methylcytosine; d = 2'-deoxy (DNA)
Expressed in g/dL, but write only the number.

Below: 3 substances and their reported MCHC.
1. ISIS 449708: 3-8-3, 4-8-4, 2-10-2, 3-10-3 or 4-10-4 MOE microwalk gapmer (Table 46) (antisense eA*e[5mC]*eA*dG*dT*dT*dT*d[5mC]*dT*dG*dG*e[5mC]*eA*eG) : 31.8
2. ISIS 445522: 5-8-5 or 6-8-6 MOE microwalk gapmer (Table 44) (antisense eG*e[5mC]*eA*e[5mC]*eA*dG*dT*dT*dT*d[5mC]*dT*dG*dG*e[5mC]*eA*eG*eG*e[5mC]) : 31.0
3. ISIS 416850: MOE gapmer, nucleobases 1275 to 1318 of SEQ ID NO: 1 (Table 8) (antisense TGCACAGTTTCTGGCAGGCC; MOE gapmer, wing and gap sizes not given here) : 30.9

Task: Given ISIS 449710: 3-8-3, 4-8-4, 2-10-2, 3-10-3 or 4-10-4 MOE microwalk gapmer (Table 46) (antisense e[5mC]*eA*e[5mC]*dA*dG*dT*dT*dT*d[5mC]*dT*dG*dG*d[5mC]*eA*eG*eG) , state its recorded MCHC.
Result: 31.1
